Reference source: the RNAGym collection of RNA variant scans (doi:10.7554/elife.80360)

B1: CPEB3 Ribozyme (parent)
chain: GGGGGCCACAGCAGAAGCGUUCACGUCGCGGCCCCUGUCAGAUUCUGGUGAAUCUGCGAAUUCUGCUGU

Variants of: B1
Assay: self-cleavage, relative activity (ratio to wild type); higher = more cleavage; co-transcriptional
reportedProperty: self-cleavage
Lab note: record the figure alone, no unit after it.

Exercise: Any idea what self-cleavage was measured for U20A C33U ?
Solution: 0.2

Exercise: Field entry: C27G A40U
Solution: 0.17

Exercise: Item: A13U C22G
Solution: 0.148

Exercise: G17A C33G ?
Solution: 0.188

Exercise: Same thing, different variant: C35G U49G
Solution: 0.373

Exercise: Now give it for A13G C22A too.
Solution: 0.106

Exercise: Please give the result for C9U U44G too.
Solution: 1.06

Exercise: Also A23U A42U , if possible.
Solution: 1

Exercise: Please answer likewise for G37C G65C
Solution: 0.255

Exercise: Proceed to A13U G41U
Solution: 0.333

Exercise: Please give the result for C29U U53G too.
Solution: 0.264

Exercise: How about this variant: C63G U67A
Solution: 0.614

Exercise: Another variant to look at: G11U G48A
Solution: 0.917

Exercise: Now consider C6G U43G .
Solution: 0.126

Exercise: Record: G3C G30U
Solution: 0.0314

Exercise: Next variant up: G25C C57G
Solution: 0.141

Exercise: Same question for G1C C18A please.
Solution: 0.035

Exercise: Also check A10C G56U
Solution: 0.936

Exercise: Next entry: G5C U20C
Solution: 0.0972

Exercise: Repeat with U38A G68A
Solution: 0.922

Exercise: Also U44G C45G ?
Solution: 0.855

Exercise: Same for U21A G31C
Solution: 0.221
